Reference source: patent US20050171182A1

system: BV173 cells; test: MTT viability assay, BV173 cells; type: cell-based; details: exposed to inhibitor for 72 hours
ENDPOINT LABEL: IC50

Notebook: O=C1NC(=O)c2c1c1c3ccccc3[nH]c1c1[nH]c3ccccc3c21 [arcyriaflavin, arcyriaflavin A] , IC50 read as > 10 µM

====

test system: MV4-11 cells; test: cells; conditions: read-out: Viability (IC50) MV4-11; exposed to inhibitor for 72 hours; MTT
ENDPOINT LABEL: pIC50
pIC50 here is simply -log10 of the concentration when that concentration is written in mol/L.

Item: O=C1NC(=O)c2c1c1c3ccccc3[nH]c1c1[nH]c3ccccc3c21 | System: MV4-11 cells | pIC50: 6.30
